- system_name: T1, GLP-1R L144A (Homo sapiens)
- T1 chain: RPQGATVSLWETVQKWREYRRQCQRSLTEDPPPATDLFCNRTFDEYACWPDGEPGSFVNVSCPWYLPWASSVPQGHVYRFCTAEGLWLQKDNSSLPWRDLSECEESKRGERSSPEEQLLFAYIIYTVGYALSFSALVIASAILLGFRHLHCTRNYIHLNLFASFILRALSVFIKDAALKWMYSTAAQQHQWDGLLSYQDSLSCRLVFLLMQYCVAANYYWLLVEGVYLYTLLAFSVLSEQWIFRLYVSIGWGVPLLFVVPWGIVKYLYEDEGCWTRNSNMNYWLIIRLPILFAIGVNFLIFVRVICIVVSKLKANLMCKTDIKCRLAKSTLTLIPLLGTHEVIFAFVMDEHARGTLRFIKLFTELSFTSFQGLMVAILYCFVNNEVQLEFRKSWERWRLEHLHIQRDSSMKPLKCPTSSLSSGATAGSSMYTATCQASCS
No end group written: not given here.
measured_parameter: IC50 (nM)
One number for each entry, in nM.

INSERT INTO measurements (binder, recorded_result) VALUES
  ('HAEGTFTSDVSSYLEGQAAKEFIAWLVKGR (not fully specified (C-terminus)) [glucagon-like peptide-1]', 11);

Enquiry: // IC50 lookup, key: HSQGTFTSDYSKYLDSRRAQDFVQWLMNTKRNRNNIA [oxyntomodulin]
Return: 51.3
